Data origin, for the record: ChEMBL document CHEMBL5620379

- METHOD_NOTES: Selectivity index, ratio of CC50 for mouse J774 macrophage to IC50 for Leishmania donovani amastigotes infected in J774 macrophage
- Format: toxicity
- STUDY_CONDITIONS: J774 macrophages, read-out: Ratio CC50/IC50
READOUT_TYPE: selectivity ratio
Answers are plain numbers.

Cn1c(-c2ccc(OCC(=O)Nc3ccc4c(c3)OCO4)cc2)nc2ccccc2c1=O ... 2.25
COc1ccc(NC(=O)COc2ccc(-c3nc4ccccc4c(=O)n3C)cc2)cc1 ... 1.5
Cn1c(-c2ccc(OCC(=O)Nc3ccccn3)cc2)nc2cc(F)ccc2c1=O ... 3.82

--- query ---
Reported selectivity ratio of Cn1c(-c2ccc(OCC(=O)Nc3ccc4c(c3)CCC4)cc2)nc2ccccc2c1=O : 5.09

###

- System: J774
- METHOD_NOTES: Cytotoxicity against mouse J774 cells at 12.5 uM incubated for 72 hrs by MTT assay relative to control
- Assay type: toxicity, cell-based
- STUDY_CONDITIONS: j774, 72 h
Label key: met means Activity under 70%; not met means Activity of 70% or more.

COc1ccc(NC(=O)COc2ccc(-c3nc4ccccc4c(=O)n3C)cc2)cc1OC ... not met
Cn1c(-c2ccc(OCC(=O)Nc3ccc4c(c3)CCC4)cc2)nc2ccccc2c1=O ... not met
Cn1c(-c2ccc(OCC(=O)Nc3ccc4c(c3)OCO4)cc2)nc2ccccc2c1=O ... not met
Cn1c(-c2ccc(OCC(=O)Nc3ccc(F)cc3)cc2)nc2ccccc2c1=O ... not met
COc1ccc(NC(=O)COc2cccc(-c3nc4ccccc4c(=O)n3C)c2)cc1 ... met

Now consider a different molecule.
For Cn1c(-c2ccc(OCC(=O)Nc3ccccn3)cc2)nc2ccc(Cl)cc2c1=O , is the recorded Activity below the cut-off of 70%?
met
